- System: SEM cells
- Assay notes: AUC of viability dose-response curve (% viability x log10 dose units); higher = less sensitive
- Test conditions: RPMI 5 mM glucose + 10% dialyzed FBS; 48 h
Reported AUC of viability dose-response curve values for the following molecules.
Number, no unit, nothing else.

Use the examples below as a reference point.
>>> numeric_value("CC(O)(C[S+](=O)([O-])c1ccc(F)cc1)C(=O)Nc1ccc(C#N)c(C(F)(F)F)c1 (centres undefined)")
424
>>> numeric_value("COC1=CC(=CC(=C1)C2=CC=C3N=CC\\4=C(N(C(=O)\\C=C4)C5=CC(=C(C=C5)N6CCNCC6)C(F)(F)F)C3=C2)OC")
413
>>> numeric_value("O=C(O)c1cccc(-c2noc(-c3ccccc3F)n2)c1")
472

Please find the next molecule below.
Q. Endpoint output: AUC of viability dose-response curve of CN(C[C@@H]1COCCO1)[S+]([O-])(=O)NC2=CC3=C(C=C2)\C=C/C4=C(C=C(C=N4)C5=C[N](C)N=C5)C3=O . Value?
A. 292

----------
- Tested on: P12-Ichikawa
- Assay notes: cell viability relative to DMSO control; higher = less cytotoxic
- Test conditions: RPMI 5 mM glucose + 10% dialyzed FBS; 48 h; 0.569 µM
Reported cell viability values for the following molecules.
Respond with the bare value in %.

Use the examples below as a reference point.
>>> numeric_value("COc1cc2c(cc1O)CCC1C2CC[C@@]2(C)C1CC[C@@H]2O (stereo partly specified)")
115
>>> numeric_value("OC[C@H]1OC(O)C[C@@H](O)[C@@H]1O (stereo partly specified)")
119
>>> numeric_value("C[C@H](NC(=O)[C@@H](O)c1cc(F)cc(F)c1)C(=O)N[C@@H]1C(=O)N(C)c2ccccc2-c2ccccc21")
99.6
>>> numeric_value("c1ccc2c(CN3CCNCC3)cccc2c1")
117
>>> numeric_value("Cc1ccc(C(=O)Nc2ccc([S+](=O)([O-])O)c3cc([S+](=O)([O-])O)cc([S+](=O)([O-])O)c23)cc1NC(=O)c1cccc(NC(=O)Nc2cccc(C(=O)Nc3cc(C(=O)Nc4ccc([S+](=O)([O-])O)c5cc([S+](=O)([O-])O)cc([S+](=O)([O-])O)c45)ccc3C)c2)c1")
80

Please find the next molecule below.
Q. Form: Entry = C/C=C(\C)C(=O)N[C@@H](c1ccccc1)[C@@H](O)C(=O)O[C@H]1C[C@@]2(O)[C@@H](OC(=O)c3ccccc3)[C@@H]3[C@]4(OC(C)=O)CO[C@@H]4C[C@H](O)[C@@]3(C)C(=O)[C@H](OC(C)=O)C(=C1C)C2(C)C | System = P12-Ichikawa | cell viability = ____
A. 30.4

----------
- Tested on: SEM cells
- Assay notes: cell viability relative to DMSO control; higher = less cytotoxic
- Test conditions: HPLM + 10% dialyzed FBS; 48 h; 0.00702 µM
Reported cell viability values for the following compounds.
Form field: result (number plus unit)

>>> result("CC1=CC/2=C(C=C1C)N(C[C@@H](O)[C@@H](O)[C@@H](O)CO)C/3=N/C(=O)NC(=O)C3=N2")
"126%"
>>> result("C=C1CCC2[C@](C)(CO)C(O)CC[C@]2(C)C1C/C=C1/C(=O)OCC1O (stereo partly drawn)")
"112%"

Please find the next compound below.
Q. Endpoint output: cell viability of OC1CCC(CC1)N2\C=N/C3=C(C2=N)C(=C([N]3CC4=CC=CC=C4)C5=CC=CC=C5)C6=CC=CC=C6 (stereo not drawn) . Value?
A. 134%

----------
Reported cell viability values for the following compounds.
- Tested on: P12-Ichikawa
- Assay notes: cell viability relative to DMSO control; higher = less cytotoxic
- Test conditions: RPMI 5 mM glucose + 10% FBS; 48 h; 0.0211 µM
Respond with the bare value in %.

Use the examples below as a reference point.
>>> numeric_value("Cc1nnc(C(C)C)n1[C@@H]1C[C@H]2CC[C@@H](C1)N2CC[C@H](NC(=O)C1CCC(F)(F)CC1)c1ccccc1")
100
>>> numeric_value("COc1cccc(N(C)C(=S)Oc2ccc3c(c2)CCCC3)n1")
103
>>> numeric_value("CCOc1ccccc1N/N=C1/C(=O)N(c2nc(-c3ccccc3)cs2)N=C1C")
121
>>> numeric_value("CCN(CC)CCCC(C)Nc1ccnc2cc(Cl)ccc12 (stereo not drawn)")
102
>>> numeric_value("CCn1c(C(=O)N(C2CC2)C2CC2)cc2c3c(ncn3C)c(Nc3cc(C)n(C)n3)nc21")
108
>>> numeric_value("CCOc1cc(C(=O)Nc2ccc(Cl)c(-c3nc4ccccc4[nH]3)c2)cc(OCC)c1OCC")
88.4
>>> numeric_value("Clc1ccc(C(c2ccc(Cl)cc2)[n+]2ccn(CC(OCc3ccc(Cl)cc3Cl)c3ccc(Cl)cc3Cl)c2)cc1 (stereo not drawn)")
110

Q. Endpoint output: cell viability of CN(C[C@@H]1COCCO1)[S+]([O-])(=O)NC2=CC3=C(C=C2)\C=C/C4=C(C=C(C=N4)C5=C[N](C)N=C5)C3=O . Value?
A. 95.2

----------
- System: P12-Ichikawa
- Assay notes: cell viability relative to DMSO control; higher = less cytotoxic
- Test conditions: RPMI 5 mM glucose + 10% dialyzed FBS; 48 h; 0.0211 µM
Assay readout: cell viability (%)
Respond with the bare value in %.

Use the examples below as a reference point.
>>> numeric_value("O=c1oc2cc(O)ccc2s1")
112
>>> numeric_value("COC(=O)[C@H](Cc1ccccc1)NC(=O)[C@@H](N)CC(=O)O")
112
>>> numeric_value("CC1(C)[C@@H](O)CC[C@@]2(C)[C@H]1CC[C@]3(C)[C@@H]2C(=O)\\C=C/4[C@@H]5C[C@](C)(CC[C@]5(C)CC[C@@]34C)C(O)=O")
113
>>> numeric_value("COc1c(N2C[C@@H]3CCCN[C@@H]3C2)c(F)cc2c(=O)c(C(=O)O)cn(C3CC3)c12.Cl.O")
109

Please find the next molecule below.
Q. Endpoint output: cell viability of Cc1cc(/C=c2/sc3nc4ccccc4n3c2=O)c(C)n1-c1ccccc1 . Value?
A. 132

----------
- Tested on: SEM cells
- Assay notes: cell viability relative to DMSO control; higher = less cytotoxic
- Test conditions: RPMI 5 mM glucose + 10% FBS; 48 h; 0.19 µM
Reported cell viability values for the following molecules.
Respond with the bare value in %.

Use the examples below as a reference point.
>>> numeric_value("CN1CCN(CC1)C2=CC3=C([NH]C(=N3)C/4=C(\\N)C5=C(F)C=CC=C5NC4=O)C=C2")
44.5
>>> numeric_value("COCCCC/C(=N\\OCCN)c1ccc(C(F)(F)F)cc1")
85.9
>>> numeric_value("Cc1nc(-c2ccc(-c3ccc(C(=O)N4CCc5cc6c(cc54)C4(CCN(C)CC4)CO6)cc3)c(C)c2)no1")
112
>>> numeric_value("CCN(CC)CCCC(C)Nc1ccnc2cc(Cl)ccc12 (configuration not stated)")
111

Q. Form: Entry = c1ccc2c(CN3CCNCC3)cccc2c1 | System = SEM cells | cell viability = ____
A. 101

Q. Form: Entry = COc1cc(N2CCC(N3CCN(C)CC3)CC2)ccc1Nc1ncc(Cl)c(Nc2ccccc2[S+](=O)([O-])C(C)C)n1 | System = SEM cells | cell viability = ____
A. 84.1

Q. Form: Entry = CCC[C@H](Nc1nc(-c2ccc(NC(=O)NCC)c(OC)c2)ncc1C)c1cccnc1 | System = SEM cells | cell viability = ____
A. 21

----------
- System: NOMO1
- Assay notes: cell viability relative to DMSO control; higher = less cytotoxic
- Test conditions: HPLM + 10% dialyzed FBS; 48 h; 5.12 µM
Mark label 1 only when cell viability stays strictly below 90%. Values equal to the cut-off are label 0.

Answered examples (4):
>>> category_label("CO[C@H]1C[C@@H]2CC[C@@H](C)[C@@](O)(O2)C(=O)C(=O)N2CCCC[C@H]2C(=O)O[C@H]([C@@H](C)C[C@@H]2CC[C@@H](O)[C@H](OC)C2)CC(=O)[C@H](C)/C=C(\\C)[C@@H](O)[C@@H](OC)C(=O)[C@H](C)C[C@H](C)/C=C/C=C/C=C/1C")
"label 1"
>>> category_label("c1cc2c(cc1[C@H]1OC[C@H]3[C@@H]1CO[C@@H]3c1ccc3c(c1)OCO3)OCO2")
"label 0"
>>> category_label("CC[C@H](C)C(=O)O[C@H]1C[C@@H](C)\\C=C2\\C=C/[C@H](C)[C@H](CC[C@@H]3C[C@@H](O)CC(=O)O3)[C@@H]12")
"label 0"
>>> category_label("CCC(=O)N1CCN(CC1)C2=C(C=C(C=C2)N3C(=O)\\C=C/C4=C3C5=CC(=CC=C5N=C4)C6=CN=C7C=CC=CC7=C6)C(F)(F)F")
"label 1"

Q. Check if cell viability falls below 90% for OC1CCC(CC1)N2\C=N/C3=C(C2=N)C(=C([N]3CC4=CC=CC=C4)C5=CC=CC=C5)C6=CC=CC=C6 (stereo unspecified) .
A. label 1
